# experimental-system: T1, Human GITR (cell surface) (human, UniProt Q9Y5U5 26-241)
# T1 construct: also called hGITR; huGITR
# T1 sequence: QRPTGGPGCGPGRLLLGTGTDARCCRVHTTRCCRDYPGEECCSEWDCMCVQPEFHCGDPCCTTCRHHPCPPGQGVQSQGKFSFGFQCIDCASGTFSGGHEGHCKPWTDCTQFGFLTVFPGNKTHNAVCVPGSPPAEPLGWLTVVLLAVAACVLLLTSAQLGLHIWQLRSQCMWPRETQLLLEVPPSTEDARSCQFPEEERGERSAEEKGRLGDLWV
# procedure-details: flow cytometry, transiently transfected HEK293F cells, 0.1 mg/mL antibody
measurement-type: binding result

TRGB134 (antibody, human IgG1, kappa, V domains shown, human IgG1/kappa) VH: QVQLVQSGAEVKKPGSSVKVSCKASGGTFSSYAISWVRQAPGQGLEWMGGIIPIFGTANYAQKFQGRVTITADESTSTAYMELSSLRSEDTAVYYCARHRWGSGNLDYWGQGTLVTVSS VL: EIVLTQSPATLSLSPGERATLSCRASQSVSSYLAWYQQKPGQAPRLLIYDASNRATGIPARFSGSGSGTDFTLTISSLEPEDFAVYYCQQRSNWPLTFGQGTKVEIKR	binds
TRGB162 (antibody, human IgG1, kappa, V domains shown, human IgG1/kappa) VH: QVQLVQSGAEVKKPGSSVKVSCKASGGTFSSYAISWVRQAPGQGLEWMGGIIPIFGNANYAQKFQGRVTITADESTSTAYMELSSLRSEDTAVYYCARHVYKRGVLNYWGQGTLVTVSS VL: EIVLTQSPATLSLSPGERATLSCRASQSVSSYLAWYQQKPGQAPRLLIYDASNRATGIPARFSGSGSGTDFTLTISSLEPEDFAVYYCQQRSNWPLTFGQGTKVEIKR	binds
TRGB5 (antibody, human IgG1, kappa, V domains shown, human IgG1/kappa) VH: EVQLLESGGGLVQPGGSLRLSCAASGFTFSGYWMSWVRQAPGKGLEWVSAISGSGGSTYYADSVKGRFTISRDNSKNTLYLQMNSLRAEDTAVYYCAKDFYWDAFDYWGQGTLVTVSS VL: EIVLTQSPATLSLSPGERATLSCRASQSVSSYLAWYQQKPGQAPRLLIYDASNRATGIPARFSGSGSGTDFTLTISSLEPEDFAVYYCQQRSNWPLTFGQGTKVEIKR	binds

Values were extracted from patent US20170260282A1.
